Biological target: Human TRPC6 (Homo sapiens, UniProt Q9Y210)
Construct: expressed in transfected cells
Sequence (Q9Y210 1-931): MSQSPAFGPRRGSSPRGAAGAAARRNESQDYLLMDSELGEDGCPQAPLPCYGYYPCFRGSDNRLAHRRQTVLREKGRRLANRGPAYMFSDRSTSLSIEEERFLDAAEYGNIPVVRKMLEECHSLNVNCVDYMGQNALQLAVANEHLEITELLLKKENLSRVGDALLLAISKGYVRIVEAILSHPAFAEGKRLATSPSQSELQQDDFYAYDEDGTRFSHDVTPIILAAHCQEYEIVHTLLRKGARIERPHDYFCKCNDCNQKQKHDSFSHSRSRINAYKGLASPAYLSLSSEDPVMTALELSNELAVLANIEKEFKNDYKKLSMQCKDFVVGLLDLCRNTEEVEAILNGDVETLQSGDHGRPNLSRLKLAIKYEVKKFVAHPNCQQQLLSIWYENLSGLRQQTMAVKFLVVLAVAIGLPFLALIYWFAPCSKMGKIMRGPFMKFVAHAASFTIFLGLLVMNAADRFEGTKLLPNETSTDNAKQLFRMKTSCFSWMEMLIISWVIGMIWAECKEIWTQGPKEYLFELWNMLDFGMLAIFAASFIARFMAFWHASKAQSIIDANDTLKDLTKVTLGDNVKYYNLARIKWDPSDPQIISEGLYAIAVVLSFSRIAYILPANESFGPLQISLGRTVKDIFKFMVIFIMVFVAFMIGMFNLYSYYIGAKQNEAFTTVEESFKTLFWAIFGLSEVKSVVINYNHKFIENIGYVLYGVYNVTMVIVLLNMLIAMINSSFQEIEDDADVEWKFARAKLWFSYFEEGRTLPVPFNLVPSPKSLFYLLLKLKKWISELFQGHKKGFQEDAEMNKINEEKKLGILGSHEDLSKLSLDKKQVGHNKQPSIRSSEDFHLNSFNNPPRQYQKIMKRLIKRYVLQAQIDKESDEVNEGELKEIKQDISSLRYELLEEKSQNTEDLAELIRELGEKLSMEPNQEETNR
Assay: Evaluation of TRPC6 channel inhibitory activity (1), FLIPR Calcium 5 Assay Kit, OAG stimulation (Compound Nos. 1-1293)
Type: cell-based
Conditions: Human TRPC6 stably-expressing cells, OAG 30 μM, FLIPR Calcium 5 Assay Kit; read-out: Inhibitory activity (pIC50 class) (converted)
Provide the recorded IC50 for the entries that follow.

Sample records with IC50:
{"compound": "Cc1cc(Oc2cc(C#N)ccc2-c2ccc(C(N)C(N)=O)cn2)cc(N2CCOCC2)n1 (centres unmarked)", "tested.system": "Human TRPC6 (Homo sapiens, UniProt Q9Y210)", "IC50": "0.01 to 1 µM"}
{"compound": "Cn1nc(-c2ncco2)cc1Oc1cc(C#N)ccc1-c1ccc([C@H](O)CN)cn1", "tested.system": "Human TRPC6 (Homo sapiens, UniProt Q9Y210)", "IC50": "0.01 to 1 µM"}
{"compound": "N#Cc1ccc(-c2ncc(CCN)cn2)c(Cn2cc(-c3ccccc3)nn2)c1", "tested.system": "Human TRPC6 (Homo sapiens, UniProt Q9Y210)", "IC50": "< 0.01 µM"}
{"compound": "CCN(CC(F)F)c1cc(C(=O)c2cc(C#N)ccc2-c2ncc(CCN)cn2)n(C)n1", "tested.system": "Human TRPC6 (Homo sapiens, UniProt Q9Y210)", "IC50": "< 0.01 µM"}
{"compound": "Cc1nc(C2CCOCC2)cn1Cc1cc(C#N)ccc1-c1ccc(CN)cn1", "tested.system": "Human TRPC6 (Homo sapiens, UniProt Q9Y210)", "IC50": "0.01 to 1 µM"}

Go through the list and state IC50 for each entry.
1. CC(C)Cn1cc(Cc2cc(C#N)ccc2-c2ncc(CCN)cn2)cn1
2. Cc1nc(N2CCOCC2)ccc1Oc1cc(C#N)ccc1-c1ncc(CN)cn1
3. Cn1nc(C2CC2)cc1Oc1cc(C#N)ccc1-c1ccc(C(N)C(=O)N2CCCCC2)cn1 (centres unmarked)

< 0.01 µM
> 1 µM
> 1 µM
